assay-procedure: Cytotoxicity against human PCS-800-017 cells assessed as reduction in cell viability measured after 24 hrs by MTT assay
Type: toxicity, cell-based
readout-name: IC50 at 24 h (µM)
Numbers only, in µM.

Below are worked cases with known answers.
## Task IC50 at 24 h for CCOc1cc(/C=N/Nc2nc(-c3cccc([N+](=O)[O-])c3)cs2)ccc1O ?
## Result 28.6

## Task Now the same for O=[N+]([O-])c1cc(/C=N/Nc2nc(-c3ccc(Cl)cc3)cs2)ccc1Cl
## Result 22.7

// moving on: another record for IC50 at 24 h
## Task IC50 at 24 h for COc1cccc2c1C(=O)c1c(O)c3c(c(O)c1C2=O)C[C@@](O)(C(=O)CO)C[C@@H]3O[C@H]1C[C@H](N)[C@H](O)[C@H](C)O1 ?
## Result 12.5

###

Tested on: HL-60
assay-procedure: Cytotoxicity against human HL-60 cells assessed as reduction in cell viability measured after 24 hrs by MTT assay
Type: functional, cell-based
recorded-conditions: HL-60, 24 h
Task for the reader: assign each of the following compounds its reported IC50.
Give bare numbers, in nM.

Below are worked cases with known answers.
## Task IC50 for COc1cccc2c1C(=O)c1c(O)c3c(c(O)c1C2=O)C[C@@](O)(C(=O)CO)C[C@@H]3O[C@H]1C[C@H](N)[C@H](O)[C@H](C)O1 ?
## Result 450

## Task Now the same for O=[N+]([O-])c1cc(/C=N/Nc2nc(-c3ccc(Cl)cc3)cs2)ccc1Cl
## Result 2290

// moving on: another record for IC50
## Task IC50 for CCOc1cc(/C=N/Nc2nc(-c3cccc([N+](=O)[O-])c3)cs2)ccc1O ?
## Result 2320

###

Task for the reader: assign each of the following compounds its reported pIC50.
assay-target: Serine/threonine-protein kinase mTOR (Homo sapiens)
assay-procedure: Inhibition of recombinant human N-terminal FLAG-tagged mTOR (1362 to end residues) expressed in baculovirus infected Sf21 insect cells using ULight-4E-BP1 as substrate measured after 30 mins by LANCE ultra assay
One number for each entry, as −log10 of the molar value.

## Task Return pIC50 measured with Serine/threonine-protein kinase mTOR (Homo sapiens) given this compound: CCOc1cc(/C=N/Nc2nc(-c3cccc([N+](=O)[O-])c3)cs2)ccc1O
## Result 6.66

// moving on: another record for pIC50
## Task Return pIC50 measured with Serine/threonine-protein kinase mTOR (Homo sapiens) given this compound: O=[N+]([O-])c1cc(/C=N/Nc2nc(-c3ccc(Cl)cc3)cs2)ccc1Cl
## Result 6.05
